study_system: 5-hydroxytryptamine receptor 2A (Homo sapiens, UniProt P28223); note: assay procedure not described here
Sequence (P28223 whole entry): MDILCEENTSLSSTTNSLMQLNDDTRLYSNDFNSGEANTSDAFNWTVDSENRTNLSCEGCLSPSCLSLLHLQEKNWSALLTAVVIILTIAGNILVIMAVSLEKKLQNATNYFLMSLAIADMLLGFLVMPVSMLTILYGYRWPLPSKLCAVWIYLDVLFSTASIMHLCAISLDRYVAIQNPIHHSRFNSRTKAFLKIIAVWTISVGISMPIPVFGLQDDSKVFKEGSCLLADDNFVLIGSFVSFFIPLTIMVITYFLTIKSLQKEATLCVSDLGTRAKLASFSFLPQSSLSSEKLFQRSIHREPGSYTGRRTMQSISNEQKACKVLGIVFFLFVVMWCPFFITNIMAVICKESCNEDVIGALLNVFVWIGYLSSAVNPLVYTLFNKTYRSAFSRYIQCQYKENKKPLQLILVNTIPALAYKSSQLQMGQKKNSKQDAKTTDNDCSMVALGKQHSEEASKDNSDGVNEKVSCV
Type: functional, cell-based
Where a SMILES comes first, the peptide text is derived from it. [ ]: non-standard residue; d: D form. pGlu = O=C1CC[C@@H](C(=O)O)N1; Thz = O=C(O)[C@@H]1CSCN1
AC50 values by entry
property: AC50

- compound: "Clc1ccc(Cn2c(CN3CCCC3)nc3ccccc32)cc1"
  study_system: "5-hydroxytryptamine receptor 2A (Homo sapiens, UniProt P28223)"
  obs_value: "> 30 µM"
- compound: "C=CCN1CCc2nc(N)sc2CC1 [TALIPEXOLE]"
  study_system: "5-hydroxytryptamine receptor 2A (Homo sapiens, UniProt P28223)"
  obs_value: "11 µM"
- compound: "Oc1cc(O)c(Cl)cn1"
  study_system: "5-hydroxytryptamine receptor 2A (Homo sapiens, UniProt P28223)"
  obs_value: "> 30 µM"
- compound: "CO[C@H]1C[C@H](O[C@H]2CC[C@@]3(C)[C@H](CC[C@@H]4[C@@H]3CC[C@]3(C)[C@@H](C5=CC(=O)OC5)[C@@H](OC(C)=O)C[C@]43O)C2)O[C@@H](C)[C@@H]1O"
  study_system: "5-hydroxytryptamine receptor 2A (Homo sapiens, UniProt P28223)"
  obs_value: "> 30 µM"
- compound: "CC(Cc1cccc(C(F)(F)F)c1)NCCOC(=O)c1ccccc1 (stereo not given)"
  study_system: "5-hydroxytryptamine receptor 2A (Homo sapiens, UniProt P28223)"
  obs_value: "> 30 µM"
- compound: "CC(C)N(CCCCOCC(=O)O)c1cnc(-c2ccccc2)c(-c2ccccc2)n1"
  study_system: "5-hydroxytryptamine receptor 2A (Homo sapiens, UniProt P28223)"
  obs_value: "> 30 µM"
- compound: "Cc1nnc(SCC2=C(C(=O)O)N3C(=O)[C@@H](NC(=O)Cn4cnnn4)[C@H]3SC2)s1"
  study_system: "5-hydroxytryptamine receptor 2A (Homo sapiens, UniProt P28223)"
  obs_value: "> 300 µM"
- compound: "OC[C@H]1O[C@@H](n2cnc3c2NC=NC[C@H]3O)C[C@@H]1O"
  study_system: "5-hydroxytryptamine receptor 2A (Homo sapiens, UniProt P28223)"
  obs_value: "> 30 µM"
- compound: "CCOc1cc([C@@H](CS(C)(=O)=O)N2C(=O)c3cccc(NC(C)=O)c3C2=O)ccc1OC"
  study_system: "5-hydroxytryptamine receptor 2A (Homo sapiens, UniProt P28223)"
  obs_value: "> 30 µM"
- compound: "O=C1c2cccc3c2[C@H](CCC3)CN1[C@@H]1CN2CCC1CC2"
  study_system: "5-hydroxytryptamine receptor 2A (Homo sapiens, UniProt P28223)"
  obs_value: "> 30 µM"
- compound: "CC/C=C\\C/C=C\\C/C=C\\C/C=C\\C/C=C\\CCCC(=O)OCC"
  study_system: "5-hydroxytryptamine receptor 2A (Homo sapiens, UniProt P28223)"
  obs_value: "> 30 µM"
- compound: "CCN1CCCC1CNC(=O)c1cc(S(=O)(=O)CC)ccc1OC (stereo not given) [SULTOPRIDE]"
  study_system: "5-hydroxytryptamine receptor 2A (Homo sapiens, UniProt P28223)"
  obs_value: "> 30 µM"
- compound: "CC(=O)[C@H]1CC[C@H]2[C@@H]3C[C@H](C)C4=CC(=O)CC[C@]4(C)[C@H]3[C@@H](O)C[C@]12C"
  study_system: "5-hydroxytryptamine receptor 2A (Homo sapiens, UniProt P28223)"
  obs_value: "> 10 µM"
- compound: "COc1cc2[nH]c(C)c(CCN3CCN(c4ccccc4)CC3)c2cc1OC"
  study_system: "5-hydroxytryptamine receptor 2A (Homo sapiens, UniProt P28223)"
  obs_value: "> 30 µM"
- compound: "COc1ccc([C@@H]2CC(=O)c3c(O)cc(O)cc3O2)cc1O"
  study_system: "5-hydroxytryptamine receptor 2A (Homo sapiens, UniProt P28223)"
  obs_value: "> 10 µM"
- compound: "CC=CC1=C(C(=O)O)N2C(=O)[C@@H](NC(=O)[C@H](N)c3ccc(O)cc3)[C@H]2SC1"
  study_system: "5-hydroxytryptamine receptor 2A (Homo sapiens, UniProt P28223)"
  obs_value: "> 30 µM"
- compound: "O=C1CC[C@@H](C(=O)N2CSC[C@H]2C(=O)O)N1 [PIDOTIMOD] ([pGlu]-[Thz]-OH)"
  study_system: "5-hydroxytryptamine receptor 2A (Homo sapiens, UniProt P28223)"
  obs_value: "> 30 µM"
- compound: "CN1CCN=C(c2ccccc2)c2cc(Cl)ccc21"
  study_system: "5-hydroxytryptamine receptor 2A (Homo sapiens, UniProt P28223)"
  obs_value: "> 30 µM"
- compound: "O=S1(=O)CCN(CN2CCS(=O)(=O)NC2)CN1"
  study_system: "5-hydroxytryptamine receptor 2A (Homo sapiens, UniProt P28223)"
  obs_value: "> 30 µM"
- compound: "O=C(NCCO[N+](=O)[O-])c1cccnc1"
  study_system: "5-hydroxytryptamine receptor 2A (Homo sapiens, UniProt P28223)"
  obs_value: "> 30 µM"
- compound: "CC(=O)c1ccc(S(=O)(=O)NC(=O)NC2CCCCC2)cc1 [ACETOHEXAMIDE]"
  study_system: "5-hydroxytryptamine receptor 2A (Homo sapiens, UniProt P28223)"
  obs_value: "> 30 µM"
- compound: "COc1ccc(CN2CCN(C(c3ccc(F)cc3)c3ccc(F)cc3)CC2)c(OC)c1OC"
  study_system: "5-hydroxytryptamine receptor 2A (Homo sapiens, UniProt P28223)"
  obs_value: "> 30 µM"
- compound: "COc1cc(C)c(/C=C/C(C)=C/C=C/C(C)=C/C(=O)O)c(C)c1C"
  study_system: "5-hydroxytryptamine receptor 2A (Homo sapiens, UniProt P28223)"
  obs_value: "> 10 µM"
- compound: "C/C=C(/C(=C/C)c1ccc(O)cc1)c1ccc(O)cc1"
  study_system: "5-hydroxytryptamine receptor 2A (Homo sapiens, UniProt P28223)"
  obs_value: "> 10 µM"
- compound: "Cn1c(=O)c2c(ncn2CCOC(=O)C(C)(C)Oc2ccc(Cl)cc2)n(C)c1=O [THEOFIBRATE]"
  study_system: "5-hydroxytryptamine receptor 2A (Homo sapiens, UniProt P28223)"
  obs_value: "> 30 µM"
- compound: "CNCCc1ccc(OC(=O)C(C)C)c(OC(=O)C(C)C)c1"
  study_system: "5-hydroxytryptamine receptor 2A (Homo sapiens, UniProt P28223)"
  obs_value: "> 30 µM"
- compound: "C[N+]12CCC(CC1)C(OC(=O)C(O)(c1ccccc1)c1ccccc1)C2 (stereo not given)"
  study_system: "5-hydroxytryptamine receptor 2A (Homo sapiens, UniProt P28223)"
  obs_value: "> 30 µM"
- compound: "CC(C(=O)O)c1ccc2c(c1)CC(=O)c1ccccc1S2 (stereo not given)"
  study_system: "5-hydroxytryptamine receptor 2A (Homo sapiens, UniProt P28223)"
  obs_value: "> 30 µM"
- compound: "OC[C@H]1O[C@@H](Oc2cc(O)cc(/C=C/c3ccc(O)cc3)c2)[C@H](O)[C@@H](O)[C@@H]1O"
  study_system: "5-hydroxytryptamine receptor 2A (Homo sapiens, UniProt P28223)"
  obs_value: "> 30 µM"
- compound: "CCOC(=O)[C@@H](N)Cc1ccc(-c2cc(O[C@H](c3ccc(Cl)cc3-n3ccc(C)n3)C(F)(F)F)nc(N)n2)cc1"
  study_system: "5-hydroxytryptamine receptor 2A (Homo sapiens, UniProt P28223)"
  obs_value: "> 30 µM"
- compound: "CCc1cc2c(s1)-n1c(C)nnc1CN=C2c1ccccc1Cl"
  study_system: "5-hydroxytryptamine receptor 2A (Homo sapiens, UniProt P28223)"
  obs_value: "> 30 µM"
- compound: "CC(C)[C@@H](C)/C=C/[C@@H](C)[C@H]1CC[C@H]2/C(=C/C=C3\\C[C@@H](O)CC[C@@H]3C)CCC[C@]12C [DIHYDROTACHYSTEROL]"
  study_system: "5-hydroxytryptamine receptor 2A (Homo sapiens, UniProt P28223)"
  obs_value: "> 10 µM"
- compound: "CCC(NC(C)C)C(O)c1ccc(O)c2[nH]c(=O)ccc12 (stereo not given)"
  study_system: "5-hydroxytryptamine receptor 2A (Homo sapiens, UniProt P28223)"
  obs_value: "> 30 µM"
- compound: "COc1cc(C(=O)OCc2cccc(COC(=O)c3cc(OC)c(OC)c(OC)c3)n2)cc(OC)c1OC"
  study_system: "5-hydroxytryptamine receptor 2A (Homo sapiens, UniProt P28223)"
  obs_value: "> 30 µM"
- compound: "CCCCCCCN(CC)CCCC(O)c1ccc(NS(C)(=O)=O)cc1 (stereo not given) [IBUTILIDE]"
  study_system: "5-hydroxytryptamine receptor 2A (Homo sapiens, UniProt P28223)"
  obs_value: "> 30 µM"

Origin of values: ChEMBL document CHEMBL5291721
